Assay: Inhibition of PB2 in Influenza A virus (A/Weiss/1943(H1N1)) infected in MDCK cells assessed as reduction in virus induced cell death after 5 days by CCK-8 assay
Could you please report measured pEC50 for the items listed next?
Give bare numbers, as −log10 of the molar value.

# CHEM_SMILES, pEC50
records = [
    ("O=C(O)[C@H]1C2CCC(CC2)[C@@H]1Nc1nc(-c2c[nH]c3ncc(F)cc23)nc2c1SCC2", 9.40),
    ("O=C(O)[C@H]1C2CCC(CC2)[C@@H]1n1ccc2cnc(-c3c[nH]c4ncc(F)cc34)nc21", 7.92),
    ("O=C(O)[C@H]1C2CCC(CC2)[C@@H]1N1CCOc2cnc(-c3c[nH]c4ncc(F)cc34)nc21", 7.62),
    ("O=C(O)[C@H]1C2CCC(CC2)[C@@H]1Nc1nc(-c2c[nH]c3ncc(F)cc23)nc2cccnc12", 7.85),
]

List reported pEC50 for each of these compounds:
1. O=C(O)[C@H]1C2CCC(CC2)[C@@H]1Nc1nc(-c2c[nH]c3ncc(F)cc23)nc2scnc12
2. O=C(O)[C@H]1C2CCC(CC2)[C@@H]1Nc1nc(-c2c[nH]c3ncc(F)cc23)nc2cccc(F)c12
3. O=C(O)[C@H]1C2CCC(CC2)[C@@H]1Nc1nc(-c2c[nH]c3ncc(F)cc23)nc2cc(C(F)F)sc12
4. O=C(O)[C@H]1C2CCC(CC2)[C@@H]1Nc1nc(-c2c[nH]c3ncc(F)cc23)nc2[nH]ccc12

Key:
[8.52, 7.70, 8.00, 8.35]
